Assay: AUC (0 to infinity) in male ICR mouse at 62.5 mg/kg, ip measured after 24 hrs by LC-MS/MS analysis
Assay type: ADME, organism-based
Settings: in vivo
MEASUREMENT_LABEL: AUC(0-inf) (ng·h/mL)

> print(dat)
                                   compound  numeric.readout
1  COCCCCNC(=O)c1cccc(C2N(c3ncccc3OC)C(=O)CS2(=O)=O)n1 (racemic)             9560

----------
Test system: HOS-TE85
Assay: Antiproliferative activity against human MNNG/HOS cells transfected with DDX5 shRNA assessed as inhibition of cell growth incubated for 72 hrs by CCK8 assay
Assay type: functional, cell-based
Conditions: HOS-TE85, 72 h
MEASUREMENT_LABEL: IC50 (nM)

> print(dat)
                                   molecule  numeric.readout
1  COCCCCNC(=O)c1cccc(C2N(c3ncccc3OC)C(=O)CS2(=O)=O)n1 (racemic)              277

----------
Experiment: Half-life in male ICR mouse at 12.5 mg/kg, iv measured after 24 hrs by LC-MS/MS analysis
Assay type: ADME, organism-based
Details: in vivo
MEASUREMENT_LABEL: half-life (min)

> print(dat)
                                   compound  measurement.label  numeric.readout
1  COCCCCNC(=O)c1cccc(C2N(c3ncccc3OC)C(=O)CS2(=O)=O)n1 (racemic)          half-life             13.3

----------
Assay: Cmax in male ICR mouse at 62.5 mg/kg, ip measured after 24 hrs by LC-MS/MS analysis
Assay type: ADME, organism-based
Conditions: in vivo
MEASUREMENT_LABEL: Cmax (ng/mL)

> print(dat)
                                   compound  value.unit  numeric.readout
1  COCCCCNC(=O)c1cccc(C2N(c3ncccc3OC)C(=O)CS2(=O)=O)n1 (racemic)       ng/mL             78.3

----------
Experiment: Metabolic stability in human liver microsomes assessed as half-life at 0.1 uM preincubated for 10 mins followed by NADPH addition and measured upto 60 mins by LC-MS/MS analysis
Type: ADME, Microsome
Conditions: time < 70 min
half-life at 0.1 µM listing for selected compounds.
MEASUREMENT_LABEL: half-life at 0.1 µM (min)

> print(dat)
                                   compound  value.unit  numeric.readout
1  COCCCCNC(=O)c1cccc(C2N(c3ccccn3)C(=O)CS2(=O)=O)n1 (centres undefined)         min             90.6
2  Cc1ccnc(N2C(=O)CS[C@@H]2c2cccc(C(=O)NCCCCn3cccn3)c2)c1         min             16.3
3  COc1cccnc1N1C(=O)CS(=O)(=O)C1c1cccc(C(=O)NCCCCc2ccccc2)n1 (centres undefined)         min             2.12
4  COCCCCNC(=O)c1cccc(C2N(c3ncccc3OC)C(=O)CS2(=O)=O)n1 (racemic)         min              156

----------
System: HOS-TE85
Assay: Antiproliferative activity against human MNNG/HOS cells assessed as inhibition of cell growth incubated for 72 hrs by CCK8 assay
Type: functional, cell-based
Conditions: HOS-TE85, 72 h
pIC50: −log10 of the molar value.
MEASUREMENT_LABEL: pIC50

> print(dat)
                                   compound  measurement.label  relation  numeric.readout
1  O=C(NCCCCc1ccccc1)c1cccc(C2N(c3ccccn3)C(=O)CS2(=O)=O)n1 (centres undefined)              pIC50         =             6.96
2  O=C(NCCCCc1ccccc1)c1cccc(C2N(c3ccc4c(c3)OCO4)C(=O)CS2(=O)=O)c1 (centres undefined)              pIC50         =             7.14
3  COCCCCNC(=O)c1cccc(C2N(c3ncccc3OC)C(=O)C[S+]2[O-])n1 (centres undefined)              pIC50         <             6.00
4  COC(=O)CCNC(=O)c1cccc(C2N(c3ccccn3)C(=O)CS2(=O)=O)n1 (centres undefined)              pIC50         <             6.00
5  O=C(NCCCCc1ccccc1)c1cccc(C2N(CCc3ccccc3)C(=O)CS2(=O)=O)c1 (centres undefined)              pIC50         <             5.00
6  COCCCCNC(=O)c1cccc(C2N(c3ccc(C)cn3)C(=O)CS2(=O)=O)n1 (centres undefined)              pIC50         =             6.58
7  O=C(NCCCCc1ccccc1)c1cccc(C2N(c3ccccn3)C(=O)CS2(=O)=O)c1 (centres undefined)              pIC50         =             7.60
8  CCCCNC(=O)c1cccc(C2N(c3ccccc3)C(=O)CS2(=O)=O)c1 (centres undefined)              pIC50         <             5.00
9  COC(=O)CCCCNC(=O)c1cccc(C2N(c3ccccn3)C(=O)CS2(=O)=O)n1 (centres undefined)              pIC50         =             6.65

----------
Assay: Metabolic stability in mouse liver microsomes assessed as half-life at 0.1 uM preincubated for 10 mins followed by NADPH addition and measured upto 60 mins by LC-MS/MS analysis
Type: ADME, Microsome
Conditions: time < 70 min
MEASUREMENT_LABEL: half-life at 0.1 µM (min)

> print(dat)
                                   compound    measurement.label  value.unit  numeric.readout
1  COc1cccnc1N1C(=O)CS(=O)(=O)C1c1cccc(C(=O)NCCCCc2ccccc2)n1 (centres undefined)  half-life at 0.1 µM         min             1.03
2  COCCCCNC(=O)c1cccc(C2N(c3ncccc3OC)C(=O)CS2(=O)=O)n1 (racemic)  half-life at 0.1 µM         min             73.8
3  Cc1ccnc(N2C(=O)CS[C@@H]2c2cccc(C(=O)NCCCCn3cccn3)c2)c1  half-life at 0.1 µM         min             5.36
4  COCCCCNC(=O)c1cccc(C2N(c3ccccn3)C(=O)CS2(=O)=O)n1 (centres undefined)  half-life at 0.1 µM         min             56.5

----------
Tested on: HOS-TE85
Experiment: Antiproliferative activity against human MNNG/HOS cells assessed as inhibition of cell growth incubated for 72 hrs by CCK8 assay
Type: functional, cell-based
Conditions: HOS-TE85, 72 h
Hi! Could you tag entries with IC50 below 100 nM as 1.0, and those at or above as 0.0? Much appreciated.

> print(dat)
                                    compound  class.label
 1  O=C(O)c1cc(C(=O)NCCCCc2ccccc2)cc(C2N(c3ccccc3)C(=O)CS2(=O)=O)c1 (stereo not drawn)          0.0
 2  O=C(NCCCCc1ccccc1)c1cccc(C2N(CCc3ccccc3)C(=O)C[S+]2[O-])c1 (stereo not drawn)          0.0
 3  O=C1CS(=O)(=O)C(c2cccc(C(=O)NCCCCc3ccccc3)c2)N1 (stereo not drawn)          0.0
 4  O=C(NCCCCc1ccccc1)c1cc(C(=O)NCCCCc2ccccc2)cc(C2N(c3ccccc3)C(=O)CS2(=O)=O)c1 (stereo not drawn)          0.0
 5  O=C(NCCCCc1ccccc1)c1cccc(C2N(c3cccc(Cl)c3)C(=O)CS2(=O)=O)n1 (stereo not drawn)          0.0
 6  COC(=O)CCCNC(=O)c1cccc(C2N(c3ccccn3)C(=O)CS2(=O)=O)n1 (stereo not drawn)          0.0
 7  COc1ccccc1N1C(=O)CS(=O)(=O)C1c1cccc(C(=O)NCCCCc2ccccc2)n1 (stereo not drawn)          1.0
 8  COC(=O)c1cccc(C2SCC(=O)N2c2ccccn2)n1 (stereo not drawn)          0.0
 9  O=C(NCCCCc1ccccc1)c1cccc(C2N(c3ncccc3F)C(=O)CS2(=O)=O)n1 (stereo not drawn)          1.0
10  Cc1ccnc(N2C(=O)C[S+]([O-])C2c2cccc(C(=O)NCCCCc3ccccc3)c2)c1 (stereo not drawn)          1.0
11  O=C(NCCCC(=O)N1CCCC1)c1cccc(C2N(c3ccccn3)C(=O)CS2(=O)=O)n1 (stereo not drawn)          0.0
12  Cc1cccc(N2C(=O)C[S+]([O-])C2c2cccc(C(=O)NCCCCc3ccccc3)c2)c1 (stereo not drawn)          0.0
13  O=C(NCCCCc1ccccc1)c1cccc(C2N(c3cccc(Cl)c3)C(=O)CS2(=O)=O)c1 (stereo not drawn)          1.0
14  COCCCCNC(=O)c1cccc(C2N(c3ccccn3)C(=O)C[S+]2[O-])n1 (stereo not drawn)          0.0
15  Cc1ccnc(N2C(=O)C[S+]([O-])C2c2cccc(C(=O)NCCCCn3cccn3)c2)c1 (stereo not drawn)          0.0
16  O=C(CCCCc1ccccc1)Nc1cccc(C2N(c3ccccc3)C(=O)CS2(=O)=O)c1 (stereo not drawn)          0.0
17  COCCCCNC(=O)c1cccc(C2N(c3ccccn3)C(=O)CS2(=O)=O)n1 (stereo not drawn)          0.0
18  COC(=O)c1cc(C(=O)NCCCCc2ccccc2)cc(C2N(c3ccccc3)C(=O)CS2(=O)=O)c1 (stereo not drawn)          1.0
19  O=C(NCCCCc1ccccc1)c1cccc(C2N(C3CC3)C(=O)CS2(=O)=O)c1 (stereo not drawn)          0.0
20  O=C(NCCCCc1ccccc1)c1cccc(C2N(c3ccc(-c4ccccc4)cc3)C(=O)CS2(=O)=O)c1 (stereo not drawn)          0.0
21  COC(=O)c1cccc(C2N(c3ccccc3)C(=O)CS2(=O)=O)c1 (stereo not drawn)          0.0
22  O=C(NCCCCc1ccccc1)c1cccc(C2N(c3ccccc3)C(=O)C[S+]2[O-])c1 (stereo not drawn)          0.0
23  O=C(NCCCCc1ccccc1)c1cccc(C2N(c3ccc[n+]([O-])c3)C(=O)CS2(=O)=O)c1 (stereo not drawn)          0.0
